Test system: A549
ASSAY_METHOD_TEXT: Antiproliferative activity against human A549 cells assessed as reduction in cell viability incubated for 48 hrs by MTT assay
Format: functional, cell-based
TEST_CONDITIONS: A549, 48 h
READOUT_NAME: IC50 (µM)
Dear colleague, please return just the value in µM, with no unit written.

// worked examples, IC50 included
INSERT INTO assay_data (smiles_structure, test_value) VALUES
  ('COc1cc(-c2nnc(-c3cn4ccccc4n3)o2)cc(OC)c1OC', 2.8),
  ('Cc1cccn2cc(-c3nnc(-c4ccc(N(C)C)cc4)o3)nc12', 12.3),
  ('COc1cc(-c2nnc(-c3cn4cccc(C)c4n3)o2)cc(OC)c1OC', 9.9),
  ('Cc1cc(Br)c2nc(-c3nnc(-c4ccc(Br)cc4)o3)cn2c1', 23.4),
  ('Cc1cc(Br)c2nc(-c3nnc(-c4ccc(N(C)C)cc4)o3)cn2c1', 10.8);

Entry Cc1cccn2cc(-c3nnc(-c4ccccc4I)o3)nc12 , tested on A549, has a reported IC50 of 33.4

Entry COc1ccc(-c2nnc(-c3cn4ccccc4n3)o2)cc1 , tested on A549, has a reported IC50 of 11.9

Entry Cc1cccn2cc(-c3nnc(-c4ccccc4)o3)nc12 , tested on A549, has a reported IC50 of 23.4

Entry Cc1cc(Br)c2nc(-c3nnc(-c4ccccc4)o3)cn2c1 , tested on A549, has a reported IC50 of 14.5

Entry c1ccc(-c2nnc(-c3cn4ccccc4n3)o2)cc1 , tested on A549, has a reported IC50 of 23.4

====

ASSAY_METHOD_TEXT: Selectivity index, ratio of IC50 for human HEK293 cells to IC50 for human PC-3 cells assessed as reduction in cell viability measured after 48 hrs by MTT assay
Type: toxicity
TEST_CONDITIONS: HEK293 cells versus PC-3 cells, read-out: Ratio IC50
READOUT_NAME: selectivity ratio at 48 h
When you answer, write just the number.

What the record says about COc1cc(-c2nnc(-c3cn4ccccc4n3)o2)cc(OC)c1OC : selectivity ratio at 48 h is 25.4

====

ASSAY_METHOD_TEXT: Induction of apoptosis in human HEK293 cells assessed as viable cells at 2.8 uM measured after 48 hrs by Annexin V-FITC/Propidium iodide staining based flowcytometry analysis (reference value: 80.2%)
Format: cell-based
TEST_CONDITIONS: read-out: Activity
READOUT_NAME: viability at 48 h, 2.8 µM
Dear colleague, please send the value followed by its unit.

What the record says about COc1cc(-c2nnc(-c3cn4ccccc4n3)o2)cc(OC)c1OC : viability at 48 h, 2.8 µM is 18.5%

====

ASSAY_METHOD_TEXT: Selectivity index, ratio of IC50 for human HEK293 cells to IC50 for human A549 cells assessed as reduction in cell viability measured after 48 hrs by MTT assay
Type: toxicity
TEST_CONDITIONS: HEK293 cells versus A549 cells, read-out: Ratio IC50
READOUT_NAME: selectivity ratio at 48 h

What the record says about COc1cc(-c2nnc(-c3cn4ccccc4n3)o2)cc(OC)c1OC : selectivity ratio at 48 h is 29

====

Test system: A549
ASSAY_METHOD_TEXT: Antiproliferative activity against human A549 cells assessed as reduction in cell viability incubated for 48 hrs by MTT assay
Format: functional, cell-based
TEST_CONDITIONS: A549, 48 h
READOUT_NAME: pIC50
Quick note: pIC50 values are minus log10 of concentrations in mol/L.

// worked examples, pIC50 included
INSERT INTO results (smiles_structure, test_value) VALUES
  ('COc1ccc(-c2nnc(-c3cn4cccc(C)c4n3)o2)cc1OC', 4.96),
  ('Cc1cc(Br)c2nc(-c3nnc(-c4ccc(Cl)cc4)o3)cn2c1', 4.36),
  ('COc1ccc(-c2nnc(-c3cn4cccc(C)c4n3)o2)cc1', 4.89);

Entry Clc1ccc(-c2nnc(-c3cn4ccccc4n3)o2)cc1 , tested on A549, has a reported pIC50 of 4.49

Entry Cc1cccn2cc(-c3nnc(-c4ccc(Br)cc4)o3)nc12 , tested on A549, has a reported pIC50 of 4.46
